Test: Caco-2/TC7 permeability (Study AIV0208)
Format: in vitro ADME, human
Conditions: human, Caco-2; Apical pH:Basolateral pH 7.4:7.4; 100 μM fedratinib
readout type: Papp at 100 μM (nm/s)

Cc1cnc(Nc2ccc(OCCN3CCCC3)cc2)nc1Nc1cccc(S(=O)(=O)NC(C)(C)C)c1 [Fedratinib] : 178

###

Experiment: Human 14C mass balance and metabolic profiling (BEX12257, MEH0082)
Format: in vivo
Conditions: human, in vivo, oral; estimated from BEX12257, MEH0082 with CL/F of 33.3 L/h; read-out: CLR (renal clearance) (converted)
readout type: CL renal

Cc1cnc(Nc2ccc(OCCN3CCCC3)cc2)nc1Nc1cccc(S(=O)(=O)NC(C)(C)C)c1 : ~27.8 mL/min

###

Experiment: Human 14C mass balance and metabolic profiling (BEX12257, MEH0082)
Type: in vivo
Conditions: human, blood and plasma, oral; Study BEX12257; read-out: B/P (blood/plasma concentration ratio)
readout type: blood plasma ratio

Cc1cnc(Nc2ccc(OCCN3CCCC3)cc2)nc1Nc1cccc(S(=O)(=O)NC(C)(C)C)c1 : 0.7

###

Molecular target: CYP2C19 (Homo sapiens, UniProt P33261)
Construct: from tissue; host or cells: human liver microsomes
Sequence (P33261 whole entry): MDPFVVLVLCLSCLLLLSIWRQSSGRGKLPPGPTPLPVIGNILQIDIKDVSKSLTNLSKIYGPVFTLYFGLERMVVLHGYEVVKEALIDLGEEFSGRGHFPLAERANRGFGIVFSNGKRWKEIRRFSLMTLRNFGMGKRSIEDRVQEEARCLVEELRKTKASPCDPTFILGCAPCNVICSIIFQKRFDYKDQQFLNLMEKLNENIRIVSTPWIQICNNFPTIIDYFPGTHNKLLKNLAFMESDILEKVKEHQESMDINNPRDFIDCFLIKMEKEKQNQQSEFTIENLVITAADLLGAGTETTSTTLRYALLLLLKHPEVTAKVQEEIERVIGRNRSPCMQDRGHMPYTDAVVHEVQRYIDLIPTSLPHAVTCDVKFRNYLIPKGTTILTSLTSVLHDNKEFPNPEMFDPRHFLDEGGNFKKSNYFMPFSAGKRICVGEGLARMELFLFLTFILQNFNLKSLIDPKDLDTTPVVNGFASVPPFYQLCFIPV
Assay: CYP mechanism-based inhibition in human liver microsomes (MIH0887), CYP2C19
Format: in vitro ADME
Conditions: human, human liver microsomes, HLM
readout type: kinact (s⁻¹)

Cc1cnc(Nc2ccc(OCCN3CCCC3)cc2)nc1Nc1cccc(S(=O)(=O)NC(C)(C)C)c1 [Fedratinib] : 0.000558

###

Target: P-gp (Homo sapiens)
Assay: P-gp interaction in Caco-2/TC7 (Study AIV0208)
Conditions: probe digoxin 5 μM
readout type: IC50 (µM)

Cc1cnc(Nc2ccc(OCCN3CCCC3)cc2)nc1Nc1cccc(S(=O)(=O)NC(C)(C)C)c1 : 10.1

###

Biological target: P-gp (Homo sapiens, UniProt P08183)
Sequence (P08183 whole entry): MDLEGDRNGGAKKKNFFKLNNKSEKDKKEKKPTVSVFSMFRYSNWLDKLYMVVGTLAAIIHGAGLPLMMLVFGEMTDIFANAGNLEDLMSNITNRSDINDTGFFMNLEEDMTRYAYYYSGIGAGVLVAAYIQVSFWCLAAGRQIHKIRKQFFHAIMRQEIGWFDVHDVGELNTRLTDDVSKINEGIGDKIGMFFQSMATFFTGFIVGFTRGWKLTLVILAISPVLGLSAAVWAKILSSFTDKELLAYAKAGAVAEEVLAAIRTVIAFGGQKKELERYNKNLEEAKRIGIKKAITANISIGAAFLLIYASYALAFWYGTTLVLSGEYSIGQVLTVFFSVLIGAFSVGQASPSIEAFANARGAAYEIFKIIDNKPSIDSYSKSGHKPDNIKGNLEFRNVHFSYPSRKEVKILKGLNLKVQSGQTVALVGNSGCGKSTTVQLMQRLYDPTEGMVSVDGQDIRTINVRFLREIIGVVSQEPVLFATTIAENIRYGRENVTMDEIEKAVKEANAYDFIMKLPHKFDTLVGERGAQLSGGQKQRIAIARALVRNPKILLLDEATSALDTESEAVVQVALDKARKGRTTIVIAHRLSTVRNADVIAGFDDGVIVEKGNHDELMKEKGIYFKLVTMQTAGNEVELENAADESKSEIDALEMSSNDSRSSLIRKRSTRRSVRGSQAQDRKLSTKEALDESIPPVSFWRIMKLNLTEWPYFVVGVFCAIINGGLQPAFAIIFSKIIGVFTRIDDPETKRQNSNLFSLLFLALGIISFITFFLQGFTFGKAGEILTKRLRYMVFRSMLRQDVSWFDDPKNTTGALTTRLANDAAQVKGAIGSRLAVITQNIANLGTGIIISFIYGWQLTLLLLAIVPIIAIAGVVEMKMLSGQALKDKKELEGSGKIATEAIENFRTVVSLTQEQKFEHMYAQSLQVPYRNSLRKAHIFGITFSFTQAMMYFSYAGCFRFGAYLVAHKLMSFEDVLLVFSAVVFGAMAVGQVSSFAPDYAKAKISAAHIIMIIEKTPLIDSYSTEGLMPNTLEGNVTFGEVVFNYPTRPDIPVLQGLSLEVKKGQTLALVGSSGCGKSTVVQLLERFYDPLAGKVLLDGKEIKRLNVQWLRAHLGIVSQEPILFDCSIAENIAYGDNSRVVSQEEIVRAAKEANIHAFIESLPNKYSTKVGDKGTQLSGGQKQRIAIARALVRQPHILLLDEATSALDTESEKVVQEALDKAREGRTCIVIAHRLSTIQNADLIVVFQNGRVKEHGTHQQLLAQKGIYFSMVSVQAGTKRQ
Assay: P-gp interaction in Caco-2/TC7 (Study AIV0208)
Conditions: from IC50 by Cheng-Prusoff, probe digoxin
readout type: Ki (µM)

Cc1cnc(Nc2ccc(OCCN3CCCC3)cc2)nc1Nc1cccc(S(=O)(=O)NC(C)(C)C)c1 [Fedratinib] : 10

###

Test: Compartmental PK modeling of single-dose 500 mg data in healthy volunteers
Format: in vivo, human
Details: human, plasma, oral, 500 mg, from compartmental modeling, assuming F ~0.36 and body weight ~81 kg; read-out: Vss
readout type: Vd

Cc1cnc(Nc2ccc(OCCN3CCCC3)cc2)nc1Nc1cccc(S(=O)(=O)NC(C)(C)C)c1 : ~4.1 L/kg

###

Test: Physicochemical properties (Study QUA-PG-2011-20593)
Settings: octanol/water; Study QUA-PG-2011-20593
readout type: logP

Cc1cnc(Nc2ccc(OCCN3CCCC3)cc2)nc1Nc1cccc(S(=O)(=O)NC(C)(C)C)c1 [Fedratinib] : 3.5

###

System: CYP3A4
Assay: CYP3A induction in primary human hepatocytes (IHH0014)
Format: in vitro ADME
Settings: human, human hepatocytes in primary culture; CYP3A mRNA, fitted, calibrated against rifampin; read-out: CYP3A4 IndC50
pEC50: −log10 of the molar value.
readout type: pEC50

Cc1cnc(Nc2ccc(OCCN3CCCC3)cc2)nc1Nc1cccc(S(=O)(=O)NC(C)(C)C)c1 [Fedratinib] : 5.28

###

Biological target: CYP3A4 (Homo sapiens)
Construct: from tissue; host or cells: human liver microsomes
Assay: CYP reversible and mechanism-based inhibition in human liver microsomes (MIH0887), CYP3A4
Assay type: in vitro ADME
Details: midazolam as substrate, absence of NADPH during pre-incubation; read-out: CYP3A IC50
readout type: IC50 (µM)

Cc1cnc(Nc2ccc(OCCN3CCCC3)cc2)nc1Nc1cccc(S(=O)(=O)NC(C)(C)C)c1 [Fedratinib] : 19.1

###

Target: CYP3A4 (Homo sapiens, UniProt P08684)
Construct: from tissue; host or cells: human liver microsomes
Sequence (P08684 2-503 limits assumed): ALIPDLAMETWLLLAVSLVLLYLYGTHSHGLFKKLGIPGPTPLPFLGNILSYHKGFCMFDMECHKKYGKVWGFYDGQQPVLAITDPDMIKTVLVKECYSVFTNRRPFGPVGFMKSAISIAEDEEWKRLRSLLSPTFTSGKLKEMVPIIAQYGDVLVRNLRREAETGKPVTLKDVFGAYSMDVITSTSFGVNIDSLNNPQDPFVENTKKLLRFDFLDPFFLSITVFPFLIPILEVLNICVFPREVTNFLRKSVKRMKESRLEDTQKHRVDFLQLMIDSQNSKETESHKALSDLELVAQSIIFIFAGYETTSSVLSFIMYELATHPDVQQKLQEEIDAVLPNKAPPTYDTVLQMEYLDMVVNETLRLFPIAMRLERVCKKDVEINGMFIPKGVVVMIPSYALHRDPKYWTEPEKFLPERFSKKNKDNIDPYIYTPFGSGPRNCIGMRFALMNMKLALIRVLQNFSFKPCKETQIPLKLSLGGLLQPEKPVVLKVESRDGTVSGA
Experiment: CYP reversible and mechanism-based inhibition in human liver microsomes (MIH0887), CYP3A4
Type: in vitro ADME
Settings: human, human liver microsomes; HLM, mechanism-based inhibition
readout type: kinact (s⁻¹)

Cc1cnc(Nc2ccc(OCCN3CCCC3)cc2)nc1Nc1cccc(S(=O)(=O)NC(C)(C)C)c1 : 0.000717

###

Target: CYP2D6 (Homo sapiens)
Sequence (P10635 whole entry): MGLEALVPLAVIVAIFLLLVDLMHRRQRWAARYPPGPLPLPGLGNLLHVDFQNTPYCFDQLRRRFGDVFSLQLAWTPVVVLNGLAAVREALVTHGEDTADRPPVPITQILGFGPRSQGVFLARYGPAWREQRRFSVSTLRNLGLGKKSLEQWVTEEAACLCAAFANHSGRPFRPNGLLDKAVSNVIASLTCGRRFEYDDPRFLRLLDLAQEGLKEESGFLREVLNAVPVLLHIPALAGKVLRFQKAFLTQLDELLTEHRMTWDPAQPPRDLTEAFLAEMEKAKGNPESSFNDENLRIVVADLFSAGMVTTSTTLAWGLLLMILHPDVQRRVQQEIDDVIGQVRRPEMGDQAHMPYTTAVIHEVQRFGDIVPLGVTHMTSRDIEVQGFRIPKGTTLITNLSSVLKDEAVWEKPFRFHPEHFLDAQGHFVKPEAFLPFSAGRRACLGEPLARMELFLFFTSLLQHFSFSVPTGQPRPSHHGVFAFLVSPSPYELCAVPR
readout type: Ki (µM)

Cc1cnc(Nc2ccc(OCCN3CCCC3)cc2)nc1Nc1cccc(S(=O)(=O)NC(C)(C)C)c1 : 10.1

###

Assay: PBPK parameter estimation in Simcyp (retrograde modeling, QGut, Peff, F, Fg, CLAdd)
Set-up: species or system human
Conditions: human, oral; read-out: CLAdd (additional systemic clearance) (converted)
readout type: clearance

Cc1cnc(Nc2ccc(OCCN3CCCC3)cc2)nc1Nc1cccc(S(=O)(=O)NC(C)(C)C)c1 [Fedratinib] : ~11.2 mL/min

###

Target: BCRP (Homo sapiens, UniProt Q9UNQ0)
Sequence (Q9UNQ0 1-655): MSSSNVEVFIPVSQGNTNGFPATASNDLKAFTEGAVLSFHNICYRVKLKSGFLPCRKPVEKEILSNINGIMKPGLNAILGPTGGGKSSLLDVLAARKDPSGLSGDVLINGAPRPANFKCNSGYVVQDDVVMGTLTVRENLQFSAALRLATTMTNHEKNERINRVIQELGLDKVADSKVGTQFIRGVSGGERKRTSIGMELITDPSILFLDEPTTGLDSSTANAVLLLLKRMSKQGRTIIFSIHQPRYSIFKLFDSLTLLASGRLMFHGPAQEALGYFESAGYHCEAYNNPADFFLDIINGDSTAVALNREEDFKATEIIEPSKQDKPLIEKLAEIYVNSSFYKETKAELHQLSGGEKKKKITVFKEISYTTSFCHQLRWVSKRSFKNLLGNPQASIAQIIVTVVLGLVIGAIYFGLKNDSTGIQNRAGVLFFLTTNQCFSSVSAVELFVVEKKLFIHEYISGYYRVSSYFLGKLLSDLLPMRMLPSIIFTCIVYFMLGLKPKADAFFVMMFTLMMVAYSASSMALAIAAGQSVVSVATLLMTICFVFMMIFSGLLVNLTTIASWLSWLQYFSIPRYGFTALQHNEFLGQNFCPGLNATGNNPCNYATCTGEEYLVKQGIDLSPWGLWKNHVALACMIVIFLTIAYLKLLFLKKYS
Test: BCRP inhibition, vesicle-based (TRI0013)
Conditions: from IC50 by Cheng-Prusoff, probe methotrexate
readout type: Ki (µM)

Cc1cnc(Nc2ccc(OCCN3CCCC3)cc2)nc1Nc1cccc(S(=O)(=O)NC(C)(C)C)c1 : 27.8

###

Assay: Physicochemical properties (Study QUA-PG-2011-20593)
Settings: pKa2 (base); free form is a diprotic base
readout type: pKa

Cc1cnc(Nc2ccc(OCCN3CCCC3)cc2)nc1Nc1cccc(S(=O)(=O)NC(C)(C)C)c1 [Fedratinib] : 9.6

###

Molecular target: OATP1B1 (Homo sapiens, UniProt Q9Y6L6)
Sequence (Q9Y6L6 1-691): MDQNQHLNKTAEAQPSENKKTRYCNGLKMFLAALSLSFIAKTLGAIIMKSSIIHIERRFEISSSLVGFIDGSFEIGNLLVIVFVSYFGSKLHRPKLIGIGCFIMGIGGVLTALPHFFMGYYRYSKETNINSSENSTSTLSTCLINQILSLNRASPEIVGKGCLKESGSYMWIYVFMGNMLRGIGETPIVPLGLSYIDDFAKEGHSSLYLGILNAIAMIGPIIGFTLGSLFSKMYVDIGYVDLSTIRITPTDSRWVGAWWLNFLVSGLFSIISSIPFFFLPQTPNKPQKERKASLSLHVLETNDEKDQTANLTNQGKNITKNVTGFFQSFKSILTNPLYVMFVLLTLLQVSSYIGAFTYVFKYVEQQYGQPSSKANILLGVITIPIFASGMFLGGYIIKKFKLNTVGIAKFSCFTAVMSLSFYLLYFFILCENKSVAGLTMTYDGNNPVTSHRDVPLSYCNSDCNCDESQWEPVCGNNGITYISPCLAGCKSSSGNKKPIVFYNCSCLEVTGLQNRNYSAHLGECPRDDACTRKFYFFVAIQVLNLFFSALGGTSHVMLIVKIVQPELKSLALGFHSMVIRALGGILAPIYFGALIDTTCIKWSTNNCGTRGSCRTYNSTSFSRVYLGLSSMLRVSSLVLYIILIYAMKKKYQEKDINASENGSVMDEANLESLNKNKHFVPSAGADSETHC
readout type: Ki (µM)

Cc1cnc(Nc2ccc(OCCN3CCCC3)cc2)nc1Nc1cccc(S(=O)(=O)NC(C)(C)C)c1 : 14.6

###

Experiment: Physicochemical properties (Study QUA-PG-2011-20593)
Conditions: pKa1 (base); free form is a diprotic base
readout type: pKa

Cc1cnc(Nc2ccc(OCCN3CCCC3)cc2)nc1Nc1cccc(S(=O)(=O)NC(C)(C)C)c1 [Fedratinib] : 6.4
